B1: TFE3 (parent)
chain: FPSDHLGDLGDPFHLGLEDILMEE

Variants of: B1
Experiment Summary: protein stability index of a GFP-peptide fusion (GPS, HEK-293T) (PSI 1-6); higher = more stable;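 further: lentivirally expressed fusions sorted by FACS into six bins by GFP to DsRed ratio, PSI derived from sequencing read proportions per bin multiplied by bin number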
Reported Conditions: c terminus: a fixed tail appended
Entries and their measured protein stability index follow.
I only need the number, thanks.

Solved entries (count: 4):
[
  {
    "Mutation Descriptor": "E23N",
    "Observed Value": 2.65
  },
  {
    "Mutation Descriptor": "D8E",
    "Observed Value": 3.73
  },
  {
    "Mutation Descriptor": "D11M",
    "Observed Value": 3.08
  },
  {
    "Mutation Descriptor": "P2A",
    "Observed Value": 2.62
  }
]

Per the record, `M22S` has protein stability index of 3.87

Per the record, `L17N` has protein stability index of 4.21

Per the record, `D19M` has protein stability index of 2.28
